Origin of measurements: ChEMBL document CHEMBL1201862

System: IGROV-1
TEST DESCRIPTION: NCI tumour cell line growth inhibition, 48 h
The source made the active and inactive calls. Cut-off read from the data, not from the text of the source: active = GI50 up to about 1.1 µM and inactive = higher.
In this section, each of the compounds is paired with its reported GI50.

# annotated cases, reported GI50 shown
COMPOUND | VALUE REPORTED
COC(=O)C1=C(c2ccc3c(c2)OCO3)OC(c2cc(OC)c(OC)c(OC)c2)C1 (centres undefined) | 2.75 µM (inactive)
Nc1nncc2[nH]nnc12 | > 100 µM (inactive)
N#Cc1nc(-c2ccccn2)oc1N | > 100 µM (inactive)
CCCC1(CCC)c2cc(/C=N\O)ccc2-c2ccc(-c3ccc(C(C)(C)C)cc3)cc21 | 61.9 µM (inactive)
COc1ccc(/C=C/c2ccnc3ccccc23)c(OC)c1 | 7.87 µM (inactive)
COc1ccc(-c2cc(=O)c3c(O)c(OC)c(OC)c(OC)c3o2)cc1 | 2.33 µM (inactive)

Which measured GI50 value corresponds to Nc1nnnn1NC(=O)NCCCl ? > 10 µM (inactive)

Now this one: CN(C)CC/C(=N\Nc1c(Cl)cccc1Cl)c1ccccc1 26.6 µM (inactive)

Now this one: COC(=O)/C=C(\S/C(=N\n1cc(C(=O)OC)c(C(=O)OC)c1-c1ccc(C)cc1)c1ccc(C)cc1)C(=O)OC 7.85 µM (inactive)

Now this one: O=S1(=O)OCCOS(=O)(=O)C1Cc1cccc2ccccc12 13.9 µM (inactive)

Now this one: O=c1cc(/C=C/c2ccc(O)c(O)c2)oc(/C=C/c2ccc(O)c(O)c2)c1 4.17 µM (inactive)

----------
Tested on: HCC 2998
TEST DESCRIPTION: NCI tumour cell line growth inhibition, 48 h
Calls of active or inactive are those of the source. Rule as the data show it: active = GI50 up to about 1.1 µM and inactive = higher.
In this section, each of the compounds is paired with its reported GI50.

# annotated cases, reported GI50 shown
COMPOUND | PROPERTY LABEL | VALUE REPORTED
O=C1OCOC2(CCCC2)C1c1ccccc1 (stereo unspecified) | GI50 | > 100 µM (inactive)
O=S(=O)(c1cc(Cl)ccc1Cl)N1CCN(c2ccc(Cl)c(Cl)c2)CC1 | GI50 | 62.1 µM (inactive)

Which measured GI50 value corresponds to CCOC(=O)NC(Nc1ccc(C)cc1)(C(F)(F)F)C(F)(F)F ? > 100 µM (inactive)

Now this one: O=c1oc2ccc3ccccc3c2cc1-c1nc2ccccc2s1 > 100 µM (inactive)

Now this one: COc1ccc(C(SC2C(O)C(CO)OC2n2ccc(=O)[nH]c2=O)(c2ccccc2)c2ccc(OC)cc2)cc1 (stereo unspecified) 14.8 µM (inactive)

Now this one: O=C1CCC2CCOc3ccc(O)c1c32 (stereo unspecified) > 100 µM (inactive)

Now this one: [N-]=[N+]=NCN1C(=O)C2C3C=CC(C2C1=O)C1C2C(=O)N(CN=[N+]=[N-])C(=O)C2C31 (stereo unspecified) 11.7 µM (inactive)

Now this one: CC(=O)Nc1ccc(S(=O)(=O)N/N=C/c2cc(I)cc([N+](=O)[O-])c2O)cc1 > 100 µM (inactive)

Now this one: CCN(CC)CCC1CCCCN1CC(=O)N1c2ccccc2NC(=O)CC1C (stereo unspecified) > 100 µM (inactive)

----------
System: SR
TEST DESCRIPTION: NCI tumour cell line growth inhibition, 48 h
Activity calls are given as the source filed them. Rule as the data show it: active = GI50 up to about 1.1 µM and inactive = higher.
// classify into active, inactive

COMPOUND | CATEGORY
COc1ccc(C(=O)c2ccc(-n3c4ccccc4c4ccc5c(c43)C(=O)C=CC5=O)cc2)cc1 | inactive
C=C1C(=O)O[C@@H]2C(=O)[C@@H](C)[C@@H]3C=CC(=O)[C@@]3(C)[C@@H](OC(=O)/C(C)=C\C)[C@H]12 | active
COC1=CC2=NCCc3n[nH]c(c32)C1=O | inactive
O=C1C(Br)=C(c2ccccc2)C(c2ccccc2)=C1c1ccccc1 | active
COc1ccc(-c2cc(=O)c3c(O)c(OC)c(OC)c(OC)c3o2)cc1 | active

# outcome recorded in this test, key = CC1=CC(=O)C(=O)C2=C1OC1(C2)C(C)CCC2C3(C)CCC(O)C(C)(C)C3CCC21C (configuration not stated) inactive

Now this one: Cc1ccc(-c2ccc3c(c2)Sc2ccccc2O3)n1C active

Now this one: CCCCCCCCCC1CC(=O)OC2=C1C(=O)CCC2 (configuration not stated) inactive

Now this one: N#C/C(=C\c1ccc(Cl)cc1)c1nc2ccccc2c(=O)[nH]1 inactive

Now this one: CC(=O)OCCc1cccnc1/C=N/O inactive

Now this one: Clc1cccc(/C=N/C23CC4CC(CC(C4)C2)C3)c1Cl active

Now this one: C=CSCCC(N)C(=O)O (configuration not stated) inactive

Now this one: C=CCN(C)CN(C)c1nc(N(C)C)nc(N(C)C)n1 inactive

Now this one: CO[C@@H]1C=C[C@@]23c4cc5c(cc4C(O)N(CC2O)C3C1)OCO5 (some centres not stated) inactive

Now this one: Cc1cc2sc(C)[n+](CCCOS(=O)(=O)[O-])c2cc1C inactive

Now this one: [N-]=[N+]=NC1C2CC3C4CC5CC3[C@H](C2)C(C5)C41 (some centres not stated) inactive

----------
Tested on: SNB-78
TEST DESCRIPTION: NCI tumour cell line growth inhibition, 48 h
Active and inactive are the calls of the source. Cut-off read from the data, not from the text of the source: active = GI50 up to about 1.1 µM and inactive = higher.
PROPERTY LABEL: GI50

# annotated cases, reported GI50 shown
COMPOUND | GI50
Cc1cc(Cl)ccc1NC(=O)C(=O)Cc1nc2ccccc2o1 | > 100 µM (inactive)
O=C1[C@H]2ON(c3ccccc3)C(c3ccco3)[C@H]2C(=O)N1c1ccc(Cc2ccc(N3C(=O)[C@@H]4ON(c5ccccc5)C(c5ccco5)[C@@H]4C3=O)cc2)cc1 (stereo not given in full) | > 100 µM (inactive)
O=[N+]([O-])c1ccc(-c2noc(-c3ccc(Cl)cc3)c2C2=NCCN2)cc1 | > 100 µM (inactive)

I'm curious: which GI50 was measured for Cc1ccc(S(=O)(=O)N/N=C/C(C)C)cc1 tested on SNB-78? > 100 µM (inactive)

Now this one: C=CSCCC(N)C(=O)O (stereo not given) > 100 µM (inactive)

Now this one: CCc1cc(C)cc2[n+]1CC=C2.[O-][Cl+3]([O-])([O-])[O-] 33.9 µM (inactive)

Now this one: CCN(CC)Cc1c(/C=C\c2cc(OC)c(OC)c(OC)c2)ccc(OC)c1O 4.17 µM (inactive)

Now this one: N#C/C(=C1\OC(=O)C(c2ccc(Br)cc2)=C1O)c1ccc(Br)cc1 12.3 µM (inactive)

Now this one: CCOC(=O)Cn1c(=O)[nH]c(=O)c2[nH]cnc21 > 100 µM (inactive)

Now this one: CN1NC(c2ccccc2)=C(C#N)C(=O)CC1c1ccccc1Cl (stereo not given) > 100 µM (inactive)

----------
Test system: A549
TEST DESCRIPTION: NCI tumour cell line growth inhibition, 48 h
The source made the active and inactive calls. No stated cut-off is given here; in the data, active = GI50 up to about 1.1 µM and inactive = higher.
In this section, each of the compounds is paired with its reported GI50.

COMPOUND | VALUE REPORTED
Cc1c(NC(=O)C(C)(C)Br)c(=O)oc2c(C)c3occc(=O)c3cc12 | 68.5 µM (inactive)
Cc1[nH]c2ccccc2c1-c1cc(-c2cc(-c3c(C)[nH]c4ccccc34)nc(N)n2)nc(N)n1 | > 100 µM (inactive)
O=C1C[C@@H](c2ccc(O)cc2)[C@@]2(O1)C(=O)O[C@H]([C@@H](O)CO)[C@@H]2O | > 100 µM (inactive)
CCN1C/C(=C\c2ccc(Cl)cc2)c2nc(N)c(C#N)c(-c3ccc(Cl)cc3)c2C1 | > 100 µM (inactive)

Now turn to the next compound.
Which measured GI50 value corresponds to C=C1CC[C@@H](Br)C(C)(C)[C@]12CCC(C)(O)C(Cl)C2 (stereo not given in full) ? 20 µM (inactive)

----------
Test system: NCI/ADR-RES
TEST DESCRIPTION: NCI tumour cell line growth inhibition, 48 h
Active and inactive are the calls of the source. Cut-off read from the data, not from the text of the source: active = GI50 up to about 1.1 µM and inactive = higher.
// classify into y (active), n (inactive)

Worked set:
COMPOUND | EXPERIMENTAL TARGET | CATEGORY
O=C(N/N=C/c1ccco1)c1cc(I)cc(I)c1O | NCI/ADR-RES | n
CCOC(=O)CCCNC(=O)CCCCC(=O)N(C)C | NCI/ADR-RES | n
CC(C)(Cl)C(Cl)CC/C(CBr)=C(\Cl)CCl (stereo unspecified) | NCI/ADR-RES | n
CN[C@@H]1C[C@H]2O[C@@](C)([C@@H]1OC)n1c3ccccc3c3c4c(c5c6ccccc6n2c5c31)C(=O)N[C@@H]4O | NCI/ADR-RES | y
CN1CCN(/C(N)=C(\C#N)C(=O)Nc2ccc(Cl)cc2)CC1 | NCI/ADR-RES | n

# outcome recorded in this test, key = CC(C)c1cccc(C(C)C)c1NC(=O)/C(CC(=O)CC(c1ccccc1)c1c(O)c2ccccc2oc1=O)=N/O (stereo unspecified) n
